- Tested on: SF-539 CNS
- Assay notes: NCI tumour cell line growth inhibition, 48 h
Where a SMILES comes first, the peptide text is derived from it.
Measured TGI values are reported for all entries that follow.
Numbers only here, please. The scale is µM.

Query: What does the data say about its TGI? Entry: COc1cc(-c2n/c(=C\c3c(O)[nH]c4cc(Cl)ccc34)cc3c2=Nc2ccccc2-3)cc(OC)c1OC
Response: 30.8

Query: What does the data say about its TGI? Entry: CCC(=O)Nc1ccccc1C#C/C=C\C#Cc1ccccc1C(F)(F)F
Response: 13.1

Query: What does the data say about its TGI? Entry: COC(=O)/C=C1/SC(N2N=C(c3cccs3)CC2c2ccc(F)cc2)=NC1=O (configuration not stated)
Response: 3.39

Query: What does the data say about its TGI? Entry: CC(C)CC(NC(=O)C(Cc1ccccc1)NC(=O)C(Cc1c[nH]c2ccccc12)NC(=O)CNC(=O)C(N)Cc1ccc(O)cc1)C(=O)O (configuration not stated) (H-YGWFL-OH; configuration not given here)
Response: 87

Query: What does the data say about its TGI? Entry: N#Cc1c(Cl)nc2ccccc2c1N=[N+]=[N-]
Response: 4.6

Query: What does the data say about its TGI? Entry: COc1ccc(/C=C/C(=O)CC(=O)/C=C/c2ccc(OC)cc2)cc1
Response: 78.7

Query: What does the data say about its TGI? Entry: CC(C)(C)OC(=O)C1=C2C=C(O)C=CC2(C)N(Cc2ccccc2)C1=N (configuration not stated)
Response: 12.7

Query: What does the data say about its TGI? Entry: C/C(=N\NC(=S)N1CC2CCC(CC2)C1)c1cccc(C)n1
Response: 2.58

Query: What does the data say about its TGI? Entry: CCN(CC)c1ccc2cc(-c3nnc(-c4ccccc4O)o3)c(=O)oc2c1
Response: 22.4

Query: What does the data say about its TGI? Entry: CN1CCN(c2nc(NCCCNc3ccnc4cc(Cl)ccc34)c3ccccc3n2)CC1
Response: 3.5

Query: What does the data say about its TGI? Entry: O=c1[nH]nc(Cn2c3ccc(Br)cc3c3nc4ccccc4nc32)n1C1CCCCC1
Response: 46

Query: What does the data say about its TGI? Entry: Cc1ccc(C2=Nc3c(N)ncnc3NC(c3ccc4c(c3)OCO4)C2)cc1 (configuration not stated)
Response: 21.7

Query: What does the data say about its TGI? Entry: CC1=CC(C)C(C)N(CCNS(=O)(=O)c2ccc(C)cc2)c2ccccc21 (configuration not stated)
Response: 18.1

Query: What does the data say about its TGI? Entry: O=[n+]1c2ccccc2n([O-])c2cc(Cl)ccc21
Response: 11.2

Query: What does the data say about its TGI? Entry: O=S(=O)(c1ccccc1)n1cc(C[P+](c2ccccc2)(c2ccccc2)c2ccccc2)c2ccccc21
Response: 16.8

Query: What does the data say about its TGI? Entry: CC1(C)C(=O)/C=C\C(=O)C(C)(C)C(=O)/C=C\C(=O)C(C)(C)C(=O)/C=C\C(=O)C(C)(C)C(=O)/C=C\C1=O
Response: 55.8

Query: What does the data say about its TGI? Entry: Oc1cccc2cc(Br)cnc12
Response: 57.3

Query: What does the data say about its TGI? Entry: N=C(N)c1ccc(-c2ccc(-c3cccs3)s2)s1
Response: 2.96

----------
- Tested on: MDA-MB-231 breast
- Assay notes: NCI tumour cell line growth inhibition, 48 h
Readout: log10 TGI (log10 of the value in µM)
Lab note - TGI converted to log10 from values in µM.

>  <Compound>
CC(C)(C)OC(=O)C1=C2C=C(O)C=CC2(C)N(Cc2ccccc2)C1=N (stereo not given)

>  <Target or test system>
MDA-MB-231 breast

>  <Readout>
log10 TGI

>  <Reported result>
1.33

$$$$

Query: Form: Entry = COCCN1CCN(Cc2ccc(-c3n[nH]c4c3C(=O)c3c(NC(=O)NN5CCOCC5)cccc3-4)cc2)CC1 | System = MDA-MB-231 breast | log10 TGI = ____
Response: -0.23

Query: Form: Entry = O=C(O)CCc1c2ccc(=O)c(O)c-2oc2c(O)c(O)ccc12 | System = MDA-MB-231 breast | log10 TGI = ____
Response: 1.80

Query: Form: Entry = CCCCNC(=O)c1cc(NCc2cc(O)ccc2O)ccc1O | System = MDA-MB-231 breast | log10 TGI = ____
Response: 1.34

Query: Form: Entry = C=CC(Br)(CBr)CCC(Br)C(C)(C)Cl (stereo not given) | System = MDA-MB-231 breast | log10 TGI = ____
Response: 0.84

Query: Form: Entry = CN1C=Cc2nccc3cc4c(c1c23)OCO4 | System = MDA-MB-231 breast | log10 TGI = ____
Response: 1.46

Query: Form: Entry = CCN(CC)CCN(Cc1ccc(F)cc1)c1ccc(CO)c(Cl)c1 | System = MDA-MB-231 breast | log10 TGI = ____
Response: 1.73
